The reader will find reported (EFFICACY) RAR γ values listed item by item below.
Tested on: RARγ
Assay: chimeric receptor transactivation assay, RARγ
Assay type: cell-based
Conditions: unit assumed
Write the number in % without appending the unit.

Input: For the compound COC1(c2ccc(C#Cc3ccc(C(=O)O)cc3)cc2)CC1 , give its measured (EFFICACY) RAR γ value.
Output: 31

Input: For the compound CN(C1CC1)C1CCC(C)(C)c2cc(C#Cc3ccc(C(=O)O)cc3)ccc21 (centres unmarked) , give its measured (EFFICACY) RAR γ value.
Output: 52

Input: For the compound CC1(C)CC2(CC2)Oc2ccc(C#Cc3ccc(C(=O)O)c(F)c3)cc21 , give its measured (EFFICACY) RAR γ value.
Output: 116

Input: For the compound Cc1cc(C#Cc2ccc(C(=O)O)cc2)ccc1C1(OCC(C)(C)C)CC1 , give its measured (EFFICACY) RAR γ value.
Output: 46

Input: For the compound CCCN(CCC)C1(c2ccc(C#Cc3ccc(C(=O)O)cc3)cc2)CC1 , give its measured (EFFICACY) RAR γ value.
Output: 42

Input: For the compound CC1(C)CCC(=O)c2ccc(C#Cc3ccc(C(=O)O)c(F)c3)cc21 , give its measured (EFFICACY) RAR γ value.
Output: 94

Input: For the compound CCc1cc(C#Cc2ccc(C(=O)O)cc2)ccc1C1(OCc2ccccc2)CC1 , give its measured (EFFICACY) RAR γ value.
Output: 55

Input: For the compound CCCNC1(c2ccc(C#Cc3ccc(C(=O)O)cc3)cc2)CC1 , give its measured (EFFICACY) RAR γ value.
Output: 10
